// values below are reported growth
- Tested on: UACC-62 melanoma
- methodNotes: NCI-60 one-dose screen, 48 h (100 = growth as untreated, 0 = no growth, -100 = all killed)
- setupConditions: 10 µM unless noted
About 83,000 compounds went through this panel and 20% of them were active in at least one assay; those are over-represented in the sample as a whole. Active and inactive are the calls of the source. How the source made its calls: active means growth percent below 10; inactive means the rest.

Worked cases, growth given:
molecule=O=C(c1ccc(OCCN2CCCCC2)cc1)c1c(-c2ccc(O)cc2)sc2cc(O)ccc12 measuredon="UACC-62 melanoma" reported="92.1% (inactive)"
molecule="O=C1CCCN1C1CCN2CCCc3cccc1c32 (stereo unspecified)" measuredon="UACC-62 melanoma" reported="93.6% (inactive)"
molecule=CCOC(=O)c1cc(C(=O)OCC)c(C)nc1C measuredon="UACC-62 melanoma" reported="103% (inactive)"
molecule="CC(C)c1ccc2c(c1)CCC1C2CCCC1(C)NCc1ccccc1 (stereo unspecified)" measuredon="UACC-62 melanoma" reported="-27.4% (active)"
molecule="O=C1CCCN1C(O)CCN(Cc1ccccc1)Cc1ccc(Cl)cc1 (stereo unspecified)" measuredon="UACC-62 melanoma" reported="102% (inactive)"
molecule=O=C(/C=C/c1ccc(F)cc1)N1CCN(C(=O)/C=C/c2ccc(C(F)(F)F)cc2)CC1 measuredon="UACC-62 melanoma" reported="96.6% (inactive)"

Q) // growth lookup, key: COc1ccccc1CNCCCN1C(=O)c2ccc3c4c(ccc(c24)C1=O)C(=O)N(CCCCNCCCN)C3=O
A) -68.7% (active)

Q) Then O=C1OCC2=C1C(c1ccccc1)c1cc3c(cc1N2CCO)OCO3 (stereo unspecified) ?
A) 28.9% (inactive)

Q) Then CC(C)CC1NC(=O)C(CC(C)C)N(CO)C1=O (stereo unspecified) ?
A) 96.9% (inactive)

Q) Then Nc1ncnc2c1N=C(c1ccc3c(c1)OCO3)CC(c1ccc(Cl)cc1)N2 (stereo unspecified) ?
A) 60.3% (inactive)

Q) Then COc1ccc(-c2cc(-c3ccc(OC)cc3)c3sc(=O)[nH]c3n2)cc1 ?
A) 90.1% (inactive)

Q) Then NS(=O)(=O)c1ccc(CCn2c(SCC(=O)N/N=C/c3cc4ccccc4[nH]3)nc3ccccc3c2=O)cc1 ?
A) 53.3% (inactive)

Q) Then COc1cc(C2CC(c3ccc(Cl)cc3)=NN2C(C)=O)ccc1Oc1nc2c(c(=O)n(C)c(=O)n2C)n1C (stereo unspecified) ?
A) 75.9% (inactive)

Q) Then Cn1c(-c2ccccc2)cc(=O)n1-c1ccccc1 ?
A) 103% (inactive)

Q) Then Cc1ccc([C@H]2c3[nH]c4ccccc4c3C[C@H]3C(=O)N(CCCCCCC(=O)NO)CC(=O)N23)cc1 ?
A) 24.1% (inactive)

Q) Then O=C(CCCN1CCC(O)(c2ccc(Br)cc2)CC1)c1ccc(F)cc1 ?
A) 43.6% (inactive)

Q) Then O=C(NNC(=O)c1cccc(Cl)c1)c1ccccc1 ?
A) 123% (inactive)

Q) Then CC1CCN(CCCCCOc2ccc3oc4ccc(Cl)cc4c(=O)c3c2)CC1 ?
A) -43.5% (active)

Q) Then CC(C)(C)c1ccc(C(=O)Nc2sc3cc(O)ccc3c2C(N)=O)cc1 ?
A) 104% (inactive)

Q) Then CC1OC(n2c3ccccc3c3c4c(c5c6ccccc6[nH]c5c32)C(=O)N(CCN[C@H]2CCC[C@@H]2N)C4=O)CC(O)C1O (stereo partly specified) ?
A) 42.1% (inactive)

Q) Then O=C(/C=C/c1ccco1)c1ccccc1O ?
A) 103% (inactive)
